growth for assorted compounds
Tested on: HOP-92 NSCLC
experiment-description: NCI-60 one-dose screen, 48 h (100 = growth as untreated, 0 = no growth, -100 = all killed)
settings: 10 µM
Procedure: Growth inhibition of the HOP-92 human Non-Small Cell Lung tumor cell line is measured as a screen for anti-cancer activity. Cells are grown in 96 well plates and exposed to the test compound for 48 hours. Compounds are tested at a single concentration, which is 10^-5 M for most compounds. The reported endpoint is percent growth (GI% or GIPRCNT), where numbers from 0 - 100% represent growth inhibition, and numbers from -100% - 0 represent cell death. […]
This is part of a sample that, as a whole, favours compounds with a hit. Of some 83,000 tested, about 20% had one in any assay. Activity calls are given as the source filed them. How the source made its calls: active means growth percent below 10; inactive means the rest.
recorded-metric: growth

INSERT INTO measurements (compound, target_under_test, recorded_result) VALUES
  ('COc1cccc(-c2nnc(COc3ccc(-c4nc5ccc(C)cc5[nH]4)cc3OC)o2)c1', 'HOP-92 NSCLC', '74% (inactive)'),
  ('C[N+]1=C(/C=C/c2ccc(I)cc2)C(C)(C)c2ccccc21', 'HOP-92 NSCLC', '65% (inactive)'),
  ('COc1cccc(C(=O)N(c2ccc(F)c(F)c2)C(C(=O)NC(C)(C)C)c2cc3c(C)cc(C)cc3nc2Cl)c1 (stereo unspecified)', 'HOP-92 NSCLC', '47% (inactive)'),
  ('CCOC(=O)[C@@H]1[C@H](c2ccccc2)[C@H]([N+](=O)[O-])[C@H](c2cn(-c3ccccc3)nc2C)N1Cc1ccccc1', 'HOP-92 NSCLC', '69.8% (inactive)'),
  ('O=c1ccc2nc(-c3ccccc3)nn(-c3ccccc3)c-2c1', 'HOP-92 NSCLC', '-33% (active)'),
  ('COc1ccc(-c2nc3sc(-c4ccccc4)c(-c4ccccc4)n3c2/C=C/c2ccc(F)cc2)cc1', 'HOP-92 NSCLC', '94.5% (inactive)'),
  ('CCN(CC)CCOC(=O)c1ccc(NC(=O)Nc2cccc(Cl)c2)cc1', 'HOP-92 NSCLC', '85.1% (inactive)'),
  ('O=C(Nc1ccc(Oc2ccc(Nc3nc4ccccc4s3)cc2)cc1)Nc1ccc(Cl)c(Cl)c1', 'HOP-92 NSCLC', '37.9% (inactive)'),
  ('Cc1ccc(NS(=O)(=O)c2ccccc2)c(NS(=O)(=O)c2ccccc2)c1', 'HOP-92 NSCLC', '93.5% (inactive)'),
  ('NC(=O)c1ccc(Br)o1', 'HOP-92 NSCLC', '114% (inactive)'),
  ('COc1cc2nc(Sc3sc(N)nc3C)n(-c3ccc(Oc4ccccc4)cc3)c(=O)c2cc1OC', 'HOP-92 NSCLC', '79.5% (inactive)'),
  ('CCOC(=O)c1cc2c(n1Cc1ccccc1)-c1oncc1CC2', 'HOP-92 NSCLC', '75.6% (inactive)'),
  ('Cc1cnc(C=O)c2cccc([N+](=O)[O-])c12', 'HOP-92 NSCLC', '61.2% (inactive)'),
  ('Cc1ccccc1C1=N[C@@H](Cc2ccccc2)C(=O)c2c(nc3ccccn23)N1', 'HOP-92 NSCLC', '90.5% (inactive)'),
  ('CCN(CC)CC(O)Cc1ccc(OC)cc1 (stereo unspecified)', 'HOP-92 NSCLC', '108% (inactive)'),
  ('O=[N+]([O-])c1ccc2c(c1)Cc1cc(I)ccc1-2', 'HOP-92 NSCLC', '89.4% (inactive)'),
  ('NC1CCC(Nc2nc(NCc3ccc(-c4cccs4)nc3)c3ncn(C4CCCC4)c3n2)CC1 (stereo unspecified)', 'HOP-92 NSCLC', '-13% (active)'),
  ('COc1cc(C2c3cc4c(cc3C(O)C(CO)C2CO)OCO4)cc(OC)c1OC (stereo unspecified)', 'HOP-92 NSCLC', '65.4% (inactive)'),
  ('COc1ccc(S(=O)(=O)Nc2cc(/C=C\c3cc(OC)c(OC)c(OC)c3)ccc2OC)cc1', 'HOP-92 NSCLC', '12.7% (inactive)'),
  ('COC(=O)CCCCCCCCC(C)c1ccc(C(C)=O)cc1 (stereo unspecified)', 'HOP-92 NSCLC', '113% (inactive)'),
  ('CCOC(=O)/C(C#N)=C(/C)C1CC1', 'HOP-92 NSCLC', '86% (inactive)'),
  ('CCOC(=O)c1cc2c(n1Cc1cc(OC)cc(OC)c1)-c1oncc1CC2', 'HOP-92 NSCLC', '80% (inactive)'),
  ('Nc1c(C(=O)NC2CCCCC2)sc2nc3c(cc12)C(=O)CCC3', 'HOP-92 NSCLC', '82.9% (inactive)'),
  ('CNC(=O)c1cc(Oc2ccc(NC(=O)Nc3ccc(Cl)c(C(C)(C)C)c3)c(F)c2)ccn1', 'HOP-92 NSCLC', '75.9% (inactive)'),
  ('Cc1cc(OI)c(C(C)C)cc1-c1cc(C(C)C)c(OI)cc1C', 'HOP-92 NSCLC', '101% (inactive)'),
  ('O=C(Nc1cccc(Cl)c1)Nc1cc2ncncc2cc1OCc1cccc(F)c1', 'HOP-92 NSCLC', '-4.78% (active)'),
  ('COC1OC2COC(c3ccccc3)OC2C(=O)C1NC(=O)c1ccccc1 (stereo unspecified)', 'HOP-92 NSCLC', '79.3% (inactive)'),
  ('COc1cc(Cl)cc(-c2nn(-c3cccc(NC(=O)Nc4cccc(C(F)(F)F)c4)c3)cc2-c2ccncc2)c1', 'HOP-92 NSCLC', '-27.3% (active)'),
  ('COc1cc(CSc2nc3ccc(Cl)cc3c(=O)n2-c2ccccc2)cc(OC)c1OC', 'HOP-92 NSCLC', '89% (inactive)'),
  ('CCOC(=O)c1sc(NC(=O)c2cc(OC)c(OC)c(OC)c2)nc1C', 'HOP-92 NSCLC', '46.9% (inactive)'),
  ('Cc1ccc(/C=C2\CN(Cc3cn(CCNc4ccnc5cc(Cl)ccc45)nn3)C/C(=C\c3ccc(C)cc3)C2=O)cc1', 'HOP-92 NSCLC', '-42.6% (active)'),
  ('CC(=O)Nc1ccc(Sc2ccc(NC(C)=O)cc2)cc1', 'HOP-92 NSCLC', '83.1% (inactive)'),
  ('COc1cc(Cn2c(-c3ccccc3)c(Cl)c3c2-c2oncc2CC3)cc(OC)c1', 'HOP-92 NSCLC', '51.7% (inactive)'),
  ('CC(C)(C)CC(C)(C)c1ccc(O)c(Cc2ccc(Cl)cc2Cl)c1', 'HOP-92 NSCLC', '-90.6% (active)'),
  ('CCCn1c(=O)c2c(nc(-c3cccc(OCCCCl)c3)n2C)n(CCC)c1=O', 'HOP-92 NSCLC', '-1.14% (active)'),
  ('CCOC(=O)C(=O)Cc1cccnn1', 'HOP-92 NSCLC', '86.1% (inactive)'),
  ('CCOC(=O)Cn1nnc(-c2ccc(OCc3ccccc3F)cc2)n1', 'HOP-92 NSCLC', '75.5% (inactive)'),
  ('COc1cccc(-c2nnc(COc3ccc(-c4nc5ccccc5[nH]4)cc3OC)o2)c1', 'HOP-92 NSCLC', '93.8% (inactive)'),
  ('COc1ccc(-c2cc(/C=C3\C(=O)Nc4cc(Cl)ccc43)[nH]n2)cc1', 'HOP-92 NSCLC', '51.7% (inactive)'),
  ('COC(=O)[C@]12CC[C@@H](C)[C@H](C)[C@@H]1C1=CC[C@@H]3[C@@]4(C)CC(=O)[C@H](O)[C@@]5(C)COC(=C45)C[C@@]3(C)[C@]1(C)CC2', 'HOP-92 NSCLC', '-83.2% (active)'),
  ('CCOc1nc(-c2ccccc2)cc2c(O)c(C(=O)N/N=C/c3ccc(OC)cc3)[nH]c(=O)c12', 'HOP-92 NSCLC', '74.6% (inactive)');

----------
System: NCI-H522 lung
experiment-description: NCI-60 one-dose screen, 48 h
settings: 10 µM
Description: Growth inhibition of the NCI-H522 human Non-Small Cell Lung tumor cell line is measured as a screen for anti-cancer activity. Cells are grown in 96 well plates and exposed to the test compound for 48 hours. Compounds are tested at a single concentration, which is 10^-5 M for most compounds. The reported endpoint is percent growth (GI% or GIPRCNT), where numbers from 0 - 100% represent growth inhibition, and numbers from -100% - 0 represent cell death. […]
About 83,000 compounds went through this panel and 20% of them were active in at least one assay; those are over-represented in the sample as a whole. Active and inactive are the calls of the source. Rule for the calls: active = growth percent below 10; inactive = the rest.
Labels: active, inactive

INSERT INTO measurements (compound, cat) VALUES
  ('CCCCNC(=O)Oc1ccc(/C(=C(\C)c2ccc(OC)cc2)c2ccc(OCCN3CCCCC3)cc2)cc1', 'inactive'),
  ('COc1ccc(Nc2nc(NCc3ccccc3)c3ccccc3n2)cc1', 'inactive'),
  ('CCOC(=O)[C@@H]1[C@H](c2ccccc2)[C@H]([N+](=O)[O-])[C@H](c2cn(-c3ccccc3)nc2C)N1Cc1ccccc1', 'inactive'),
  ('CCCN(CCC)CCCNC(=O)c1cc2c(-c3ccc(OC)c(OC)c3)nn(C)c2s1', 'active'),
  ('CCOC(=O)c1c(C(F)(F)F)n([O-])c2ccc(OC)cc2[n+]1=O', 'active'),
  ('COc1cc(Cn2c(-c3ccccc3)cc3c2-c2oncc2CC3)cc(OC)c1', 'active'),
  ('CCOC(=O)/C(C#N)=C(/C)C1CC1', 'inactive'),
  ('CC1(C)Cc2c(cn(Cc3ccccc3)c2-c2ccccc2)-c2oncc21', 'inactive'),
  ('NC(=O)C12C(=O)NC(=O)C1(C(=O)O)C21CCCC1 (stereo unspecified)', 'inactive'),
  ('COc1cc(N=C2C(=O)N(Cc3ccccc3)c3ccccc32)cc(OC)c1OC', 'inactive'),
  ('COc1ccc(CCc2nc3cc(-c4c(C)noc4C)ccc3n2CCN2CCOCC2)cc1', 'inactive'),
  ('O=C(c1ccc(Cl)cc1)c1no[n+]([O-])c1C(=O)c1ccc(Cl)cc1', 'active'),
  ('COc1cc(OC)cc(N2CCN(C(=O)Nc3nc4cc(F)ccc4nc3OC)CC2)c1', 'active'),
  ('COc1ccc(S(=O)(=O)Nc2cc(/C=C\c3cc(OC)c(OC)c(OC)c3)ccc2OC)cc1', 'active'),
  ('Nc1nc2c(nnn2C2CC(O)C(CO)O2)c(=O)[nH]1 (stereo unspecified)', 'inactive'),
  ('COC(=O)c1cnc2c(c1)Oc1ccc(Cl)cc1-c1cc(C)nn1-2', 'inactive'),
  ('CCCCCC(CCC)COC(=O)c1ccc(OC)cc1 (stereo unspecified)', 'inactive'),
  ('CN1CCN(c2nc(-c3cccnc3)nc3sc4c(c23)CCCCCC4)CC1', 'inactive'),
  ('c1ccc(COCC[P+](c2ccccc2)(c2ccccc2)c2ccccc2)cc1', 'active'),
  ('NS(=O)(=O)c1ccc(N2N=C(c3ccc(-c4ccccc4)cc3)CC2c2ccc(Cl)cc2)cc1 (stereo unspecified)', 'inactive'),
  ('C#CCn1c(-c2cccc(OCCCCl)c2)nc2c1c(=O)n(C)c(=O)n2C', 'inactive'),
  ('CCc1ccc(-c2nnc(COc3ccc(-c4nc5ccc(C)cc5[nH]4)cc3OC)o2)cc1', 'inactive'),
  ('C=CCOc1ccc2c(c1)CC=C1[C@@H]2CC[C@]2(C)C(=O)/C(=N/O)C[C@@H]12', 'inactive'),
  ('Clc1cc(Cl)c(Cl)c(-c2nc(-c3cccnc3)cs2)c1', 'active'),
  ('CCOC(=O)C(CCC1=NC(C)(C)CC(C)O1)C(=O)OCC (stereo unspecified)', 'inactive'),
  ('COc1cc(-c2nc3ccc(C)cc3[nH]2)ccc1OCc1nnc(-c2ccc(CC(C)C)cc2)o1', 'inactive'),
  ('CCOC(=O)C1=C(Nc2ccc(OC)cc2)C(N)=NC1=N', 'inactive'),
  ('CCc1nn2c(-c3ccccc3)c(-c3cc(OC)c(OC)c(OC)c3)nc2s1', 'inactive'),
  ('COc1cc(NS(C)(=O)=O)ccc1Nc1c2ccc(Cl)cc2nc2c(OC)cccc12', 'active'),
  ('CCOc1nc(-c2ccccc2)cc2c(O)c(C(=O)NC(C)C)[nH]c(=O)c12', 'inactive'),
  ('O=C(COCc1c(-c2ccccc2)no[n+]1[O-])Nc1nc(-c2ccc(Cl)cc2)cs1', 'inactive'),
  ('COc1cccc(-c2nnc(COc3ccc(-c4nc5ccccc5[nH]4)cc3OC)o2)c1', 'inactive'),
  ('CCN1CCN(c2nc(NNC(=O)c3cccc(OC)c3)nc(N3CCN(C(c4ccccc4)c4ccccc4)CC3)n2)CC1', 'inactive'),
  ('CCC1(C)OC(=O)NC1=O (stereo unspecified)', 'inactive'),
  ('Cc1ccc2oc(=O)cc(/C(=C3/C=CC=N3)c3ccc[nH]3)c2c1', 'active'),
  ('O=[N+]([O-])c1ccc(-c2nc(-c3ccccc3)c(-c3ccccc3)n2-c2ccccc2)cc1', 'active'),
  ('COc1cc(-c2nc3ccc(C)cc3[nH]2)ccc1OCC(=O)N=Nc1c(O)[nH]c2ccccc12', 'active'),
  ('COc1ccc(C2=Cc3ccc(OC(C)=O)cc3OC2)cc1', 'inactive'),
  ('COc1ccc(C2C=C(c3ccc(Cl)cc3)N=C3SC=CN32)c(Br)c1 (stereo unspecified)', 'inactive'),
  ('Cc1ccc2c(c1)-c1cc(C)nn1-c1ccc(C#N)cc1O2', 'inactive'),
  ('COC(=O)CCCCCCCCC(C)c1ccc(C(C)=O)cc1 (stereo unspecified)', 'inactive');
